molecular target: human GLP-1 receptor (human, UniProt P43220 24-463); assay: cell-based or functional assay
Where no end group is shown, it is not given here. [ ]: non-standard residue; d: D form. Bip(2'-Et-4'-OMe) = CCc1cc(OC)ccc1-c1ccc(C[C@H](N)C(=O)O)cc1; αMePhe(2,6-F2) = C[C@](N)(Cc1c(F)cccc1F)C(=O)O; αMePhe(2-F) = C[C@](N)(Cc1ccccc1F)C(=O)O; αMeBip(OMe) = alpha-methylated Bip(OMe); hhPhe = N[C@@H](CCCc1ccccc1)C(=O)O; αMeD = C[C@](N)(CC(=O)O)C(=O)O; αMeP = C[C@@]1(C(=O)O)CCCN1; αMeAPPA = not defined here; αMeS = C[C@](N)(CO)C(=O)O; Aib = CC(C)(N)C(=O)O
Measured cAMP release, % activity with respect to control, at 1 µM, listed per entry.

VHSQGT[αMePhe(2,6-F2)]TSD[Bip(2'-Et-4'-OMe)][αMeAPPA] (not fully specified (C-terminus); printed as VHSQGT-(αMe-2,6-diF-Phe)-TSD-Bip(OMe)-(αMe-APPA); reading uncertain) [Seq. ID. No. 99]
99 % of control
VH[αMeP]QGT[αMePhe(2,6-F2)]TS[αMeD][αMeBip(OMe)][hhPhe] (not fully specified (C-terminus)) [Seq. ID. No. 76]
99 % of control
VH[αMeP]EGT[αMePhe(2-F)]T[αMeS]D[αMeBip(OMe)][αMeAPPA] (not fully specified (C-terminus); reading uncertain) [Seq. ID. No. 172]
99 % of control
VH[Aib]EGTFTSD[αMeBip(OMe)][αMeAPPA] (not fully specified (C-terminus); printed as VH-Aib-EGTFTSD-(αMe-Bip(OMe))-(αMe-APPA); reading uncertain) [Seq. ID. No. 139]
99 % of control
VH[αMeP]QGTFT[αMeS][αMeD][Bip(2'-Et-4'-OMe)][αMeAPPA] (not fully specified (C-terminus); printed as VH-(αMe-Pro)-QGTFT-(αMe-Ser)-(αMe-Asp)-Bip(OMe)-(αMe-APPA); reading uncertain) [Seq. ID. No. 110]
99 % of control

-- ask State the recorded cAMP release, % activity with respect to control, at 1 µM for this entry: VH[αMeP]EGTFTSD[αMeBip(OMe)][hhPhe] (not fully specified (C-terminus); printed as VH-(αMe-Pro)-EGTFTSD-(αMe-Bip(OMe))-(APPA)) [Seq. ID. No. 14]
-- reply 99 % of control

-- ask State the recorded cAMP release, % activity with respect to control, at 1 µM for this entry: VHAQGT[αMePhe(2-F)]T[αMeS]D[αMeBip(OMe)][αMeAPPA] (not fully specified (C-terminus); printed as VHAQGT-(αMe-2FPhe)-T-(αMe-Ser)-D-(αMe-Bip(OMe))-(αMe-APPA); reading uncertain) [Seq. ID. No. 166]
-- reply 96 % of control

-- ask State the recorded cAMP release, % activity with respect to control, at 1 µM for this entry: VHSQGT[αMePhe(2,6-F2)]TSD[αMeBip(OMe)][αMeAPPA] (not fully specified (C-terminus); printed as VHSQGT-(αMe-2,6-diF-Phe)-TSD-(αMe-Bip(OMe))-(αMe-APPA); reading uncertain) [Seq. ID. No. 149]
-- reply 94 % of control

-- ask State the recorded cAMP release, % activity with respect to control, at 1 µM for this entry: VHAEGTFTSD[Bip(2'-Et-4'-OMe)][αMeAPPA] (not fully specified (C-terminus); printed as VHAEGTFTSD-Bip(OMe)-(αMe-APPA); reading uncertain) [Seq. ID. No. 88]
-- reply 94 % of control

-- ask State the recorded cAMP release, % activity with respect to control, at 1 µM for this entry: VH[αMeP]QGT[αMePhe(2-F)]TS[αMeD][αMeBip(OMe)][hhPhe]-NH2 [Seq. ID. No. 68]
-- reply 95 % of control

-- ask State the recorded cAMP release, % activity with respect to control, at 1 µM for this entry: VH[Aib]EGT[αMePhe(2,6-F2)]T[αMeS][αMeD][Bip(2'-Et-4'-OMe)][αMeAPPA] (not fully specified (C-terminus); reading uncertain) [Seq. ID. No. 129]
-- reply 99 % of control

The values you see were collected from patent US20120264685A1.
